Reported normalised response values for a set of molecules
# Tested on: HCC1599
# protocol-text: normalised response (% of control), CellTox Green; higher = less cell death (100 = DMSO, 0 = benzethonium chloride kill control)
# stated-conditions: incubation time: 72 h
measure-name: normalised response (%)

| molecule | measured-number |
| --- | --- |
| C[C@]12C=CC(=O)C=C1CC[C@@H]1[C@@H]2C(=O)C[C@@]2(C)[C@H]1CC[C@]2(O)C(=O)CO [Prednisone] (100 nM) | 105 |
| C[C@]12C=CC(=O)C=C1CC[C@@H]1[C@@H]2C(=O)C[C@@]2(C)[C@H]1CC[C@]2(O)C(=O)CO [Prednisone] (1000 nM) | 97.7 |
| Cc1c(N)nc([C@H](CC(N)=O)NC[C@H](N)C(N)=O)nc1C(=O)N[C@H](C(=O)N[C@H](C)[C@@H](O)[C@H](C)C(=O)N[C@H](C(=O)NCCc1nc(-c2nc(C(=O)NCCC[S+](C)C)cs2)cs1)[C@@H](C)O)[C@@H](OC1OC(CO)C(O)C(O)C1OC1OC(CO)C(O)C(OC(N)=O)C1O)c1cnc[nH]1 (stereo not given in full) [Bleomycin] (100 nM) | 91.9 |
| CO[C@H](C(=O)[C@@H](O)[C@@H](C)O)[C@@H]1Cc2cc3cc(O[C@H]4C[C@@H](O[C@@H]5C[C@@H](O)[C@H](O)[C@@H](C)O5)[C@H](O)[C@@H](C)O4)c(C)c(O)c3c(O)c2C(=O)[C@H]1O[C@H]1C[C@@H](O[C@@H]2C[C@@H](O)[C@@H](O[C@@H]3C[C@](C)(O)[C@H](O)[C@@H](C)O3)[C@@H](C)O2)[C@H](O)[C@@H](C)O1 [Plicamycin] (1000 nM) | 94.9 |
| CN1CCc2c(c3ccccc3n2Cc2ccc(C(=O)NO)cc2)C1 [Tubastatin A] (10000 nM) | 90.1 |
| Cc1c(N)nc([C@H](CC(N)=O)NC[C@H](N)C(N)=O)nc1C(=O)N[C@H](C(=O)N[C@H](C)[C@@H](O)[C@H](C)C(=O)N[C@H](C(=O)NCCc1nc(-c2nc(C(=O)NCCC[S+](C)C)cs2)cs1)[C@@H](C)O)[C@@H](OC1OC(CO)C(O)C(O)C1OC1OC(CO)C(O)C(OC(N)=O)C1O)c1cnc[nH]1 (stereo not given in full) [Bleomycin] (10000 nM) | 84 |
| Nc1nc(Cl)nc2c1ncn2[C@@H]1O[C@H](CO)[C@@H](O)[C@@H]1F [Clofarabine] (100 nM) | 103 |
| NC(=O)NO [Hydroxyurea] (1000 nM) | 99.6 |
| C[C@@H](C(=O)O)c1ccc(-c2ccccc2)c(F)c1 [Tarenflurbil] (1000 nM) | 96.3 |
| C[C@@H]1C[C@H]2[C@@H]3CCC4=CC(=O)C=C[C@]4(C)[C@@]3(F)[C@@H](O)C[C@]2(C)[C@@]1(O)C(=O)CO [Dexamethasone] (1000 nM) | 87 |

====

# System: CAL-51
# protocol-text: normalised response (% of control), CellTiter-Glo; higher = more viable cells (100 = DMSO, 0 = benzethonium chloride kill control)
# stated-conditions: incubation time: 72 h
# Lookup of reported normalised response keyed by entry
measure-name: normalised response (%)

| molecule | measured-number |
| --- | --- |
| COc1cc2c(Oc3ccc(NC(=O)C4(C(=O)Nc5ccc(F)cc5)CC4)cc3F)ccnc2cc1OCCCN1CCOCC1 [Foretinib] (0.1 nM) | 74.1 |
| CCCCCOC(=O)Nc1nc(=O)n([C@@H]2O[C@H](C)[C@@H](O)[C@H]2O)cc1F [Capecitabine] (10 nM) | 99.6 |
| C[C@@H](C(=O)O)c1ccc(-c2ccccc2)c(F)c1 [Tarenflurbil] (1 nM) | 83.3 |
| NC(=O)c1cccc2cn(-c3ccc([C@@H]4CCCNC4)cc3)nc12 [MK-4827] (1 nM) | 99.9 |
| COc1cc2c(N3CCN(C(=O)Nc4ccc(OC(C)C)cc4)CC3)ncnc2cc1OCCCN1CCCCC1 [Tandutinib] (0.1 nM) | 82.2 |
| CC[C@@H]1C(=O)N(C)c2cnc(Nc3ccc(C(=O)N[C@H]4CC[C@H](N5CCN(CC6CC6)CC5)CC4)cc3OC)nc2N1C(C)C [Volasertib] (100 nM) | 23.7 |
| CC(C)NC[C@@H](C(=O)N1CCN(c2ncnc3c2[C@H](C)C[C@H]3O)CC1)c1ccc(Cl)cc1 [GDC-0068] (1000 nM) | 60.5 |
